- assay-notes: Metabolic stability in simulated intestinal fluid (SIF), pH 6.8, with or without pancreatin
- Assay type: in vitro ADME
- test-settings: +Pancreatin (1%), 5 μM, 37° C., 60 min
Where a SMILES comes first, the peptide text is derived from it. [ ]: non-standard residue; d: D form. The star is where a group is joined. ξ: configuration not given here. pY = N[CH](Cc1ccc(OP(=O)(O)O)cc1)C(=O)O; ξpY = NC(Cc1ccc(OP(=O)(O)O)cc1)C(=O)O; Ile(3ξ) = CCC(C)[C@H](N)C(=O)O; Hexanoyl = CCCCCC(=O)*; Ahx = NCCCCCC(=O)O
Values of SIF Stability (pH 6.8) 60 min greater than or equal to 90% map to yes; values below map to no.

Please review the following examples before continuing.
| molecule | label |
| --- | --- |
| CCCCCC(=O)NC(Cc1ccc(OP(=O)(O)O)cc1)C(=O)N[C@H](C(=O)NCCCCCC(N)=O)C(C)CC.N.N (stereo partly drawn) [Compound A29] (Hexanoyl-[ξpY]-[Ile(3ξ)]-[Ahx]-NH2) | yes |
| CCCCCC(=O)N1C(Cc2ccc(OP(=O)([O-])[O-])cc2)C(=O)N(C(C(=O)NCCCCCC(N)=O)C(C)CC)C12CCN(C)CC2.[Na+].[Na+] (stereo not drawn) [Compound 2] | yes |
| CCCCCC(=O)NC(Cc1ccc(OP(=O)(OCCN(C)C)OCCN(C)C)cc1)C(=O)NC(C(=O)NCCCCCC(N)=O)C(C)CC (stereo not drawn) [Compound A18] | no |

Evaluate CCCCCC(=O)NC(Cc1ccc(OP(=O)([O-])O)cc1)C(=O)NC(C(=O)NCCCCCC(N)=O)C(C)CC.[Na+] (stereo not drawn) [Compound A30] (Hexanoyl-[pY]-Ile-[Ahx]-NH2; configuration not given here) : SIF Stability (pH 6.8) 60 min at minimum 90%?
no

Evaluate CCCCCC(=O)NC(Cc1ccc(OC(=O)N2CCN(C)CC2)cc1)C(=O)NC(C(=O)NCCCCCC(N)=O)C(C)CC (stereo not drawn) [Compound A20] : SIF Stability (pH 6.8) 60 min at minimum 90%?
no

Evaluate CCCCCC(=O)NC(Cc1ccc(OC(=O)NCCN(C)C)cc1)C(=O)NC(C(=O)NCCCCCC(N)=O)C(C)CC (stereo not drawn) [Compound A21] : SIF Stability (pH 6.8) 60 min at minimum 90%?
yes

* * *

- assay-notes: Plasma stability study, rat plasma
- Type: in vitro ADME
- test-settings: Rat plasma, 1 μM, 37° C., 240 min
Where a SMILES comes first, the peptide text is derived from it. [ ]: non-standard residue; d: D form. The star is where a group is joined. pY = N[CH](Cc1ccc(OP(=O)(O)O)cc1)C(=O)O; Hexanoyl = CCCCCC(=O)*; Ahx = NCCCCCC(=O)O
assay-endpoint: Plasma Stability (% Parent Remaining) 240 min (%)
Quick note: give the figure in %, leave out the unit.

| compound | result-value |
| --- | --- |
| CCCCCC(=O)N[C@@H](Cc1ccc(O)cc1)C(=O)N[C@H](C(=O)NCCCCCC(N)=O)[C@@H](C)CC [Base Structure, reference compound] (Hexanoyl-Tyr-Ile-[Ahx]-NH2) | 83 |
| CCCCCC(=O)NC(Cc1ccc(OP(=O)([O-])O)cc1)C(=O)NC(C(=O)NCCCCCC(N)=O)C(C)CC.[Na+] (centres unmarked) [Compound A30] (Hexanoyl-[pY]-Ile-[Ahx]-NH2; configuration not given here) | 86 |
| CCCCCC(=O)N1C(Cc2ccc(OP(=O)([O-])[O-])cc2)C(=O)N(C(C(=O)NCCCCCC(N)=O)C(C)CC)C12CCN(C)CC2.[Na+].[Na+] (centres unmarked) | 83 |
| CCCCCC(=O)NC(Cc1ccc(OC(=O)NCCN(C)C)cc1)C(=O)NC(C(=O)NCCCCCC(N)=O)C(C)CC (centres unmarked) | 9 |

Then this compound:
I have this compound here, CCCCCC(=O)NC(Cc1ccc(OC(=O)N2CCN(C)CC2)cc1)C(=O)NC(C(=O)NCCCCCC(N)=O)C(C)CC (centres unmarked) , and I need its recorded Plasma Stability (% Parent Remaining) 240 min.
34
